System: MOLT-4 leukemia
assay-summary: NCI tumour cell line growth inhibition, 48 h
Record form. Attribute: TGI. Fill in for each entry.
Response body: numeric value in µM, unit text excluded.

What does the record list as TGI for COc1ccc(C(=O)/C=C/c2cccnc2Nc2cc(OC)c(OC)c(OC)c2)cc1 ?
7.64

// query TGI value for entry COC(=O)c1ccc2c(c1)CC1(C2)Cc2cc3c(cc2C1=O)CCC3 (stereo unspecified)
29.2

Any idea what its TGI is? The molecule is COc1ccc2cc(C(=O)/C=C/c3cccc(OC)c3OC)ccc2c1
15.6

Tell me the measured TGI of CC12CCCC(CC(=O)c3[nH]c4ccccc4c31)C2 (stereo unspecified) , please.
40.9

* * *

Test system: HOP-62 NSCLC
assay-summary: NCI tumour cell line growth inhibition, 48 h; in the data active = GI50 below about 0.43 µM; inactive = the rest
A correct response names exactly one class from active, inactive

Please let me know the test result on file for CC(C)CSc1nc(Nc2ccccc2)c(C#N)c(-c2ccc(F)cc2)n1 .
inactive

Dear all, I need the recorded test outcome for CN1C(NC(=O)c2ccc(Cl)nc2)=NS(=O)(=O)c2cc(Cl)ccc21 , thank you.
inactive

Would you mind telling me which call this test gave COc1ccc(S(=O)(=O)N(Cc2ccc3c(n2)C=CC(C)(C)O3)C2CCC2)cc1OC ?
active

Please state the recorded outcome for this compound: O=C(C[C@@H](C(=O)NCc1cccc(C(F)(F)F)c1)N1C(=O)[C@@H](N2C(=O)OC[C@@H]2c2ccccc2)[C@H]1/C=C/c1ccccc1)NC1CCN(Cc2ccccc2)CC1
inactive

Short answer needed: outcome of this test for CC(C)=[CH][Sb]([Br])([CH]=C(C)C)([CH]=C(C)C)[CH]=C(C)C ?
inactive

Fill in: this test's call for COc1cc(C(=O)O[C@H](C(N)=O)[C@]2(C)CO2)c2ccccc2c1 is ___
inactive

Identify the outcome logged in this assay for the compound shown: COc1cc(Cn2c(-c3ccccc3)cc3c2-c2oncc2CC3)cc(OC)c1OC
inactive

Please state the recorded outcome for this compound: COc1ccc(OC(=O)O[C@H]2[C@H](O[C@H]3[C@@H](O)COC(O[C@H]4C[C@H]5[C@@H]6CC=C7C[C@@H](O)CC[C@]7(C)[C@H]6CC[C@]5(C)[C@H]4[C@H](C)C(=O)CCC(C)C)[C@@H]3OC(C)=O)OC[C@@H](O)[C@@H]2O)cc1 (stereo partly drawn)
active

* * *

Test system: IGROV1 ovarian
assay-summary: NCI tumour cell line growth inhibition, 48 h
Task for the reader: assign each of the following compounds its reported TGI.

What does the data say about its TGI? Entry: N#C/C(C(=S)Nc1ccccc1)=C1/NN=C2c3ccccc3C(=O)NN21
> 100 µM

Which TGI value is on record for CCCCn1c(-c2ccc(C(=O)O/N=C(\N)c3ccc(OC)cc3)cc2)nc(-c2ccccc2)c1-c1ccccc1 ?
1.16 µM

Reported TGI, compound CC(=O)OCC1OC(N2C(c3ccccc3)=CC(c3ccccc3)C(C#N)=C2S)C(OC(C)=O)C(OC(C)=O)C1OC(C)=O (configuration not stated) : ____
> 52.9 µM

If you can, please state the reported TGI value of CCOC(=O)Cn1sc2ncc([N+](=O)[O-])cc2c1=O .
25.9 µM

Fill in: TGI of C=CCN1C(=O)/C(=C/c2ccccc2)NC1=S is ___
> 100 µM

May I ask what TGI has been recorded for CC(=O)OC[C@H]1[C@@H]2C(CC[C@]13CO3)OC(=O)CC(C)[C@]2(C)CCc1ccoc1 (some centres not stated) ?
> 100 µM

Bench note: what TGI did COc1ccc(S(=O)(=O)N(Cc2ccc3c(n2)C=CC(C)(C)O3)C2CCC2)cc1OC show?
0.262 µM

Item under review: CC[C@H](C)[C@H](NC(=O)[C@H]1CCCCN1C)C(=O)N(C)[C@H](CCc1nc(C(=O)N[C@@H](Cc2ccccc2)C[C@H](C)C(=O)OC)cs1)C(C)C . Reported TGI?
> 25 µM

// query TGI value for entry CCOCNC(=O)N(COCC)COCC
> 100 µM

I would be grateful if you could share the reported TGI for CC(C(=O)N1c2ccccc2Sc2ccccc21)N1c2ccccc2Sc2ccccc21 (configuration not stated) .
> 100 µM

Given the entry COc1cc([C@@H]2c3cc4c(cc3C(O[C@@H]3O[C@@H]5CO[C@@H](c6cccs6)OC5[C@H](O)[C@H]3O)C3COC(=O)[C@@H]32)OCO4)cc(OC)c1O (some centres not stated) , report its measured TGI.
5.13 µM

Give its TGI value. Item: COc1ccc(/C(=N/Nc2ccc([N+](=O)[O-])cc2)Sc2cc(Cl)c(C)cc2S(N)(=O)=O)cc1
> 93.2 µM
